Below, each of the compounds is paired with its reported log10 of IC50 value.
Tested on: A549
Test: Cytotoxicity against human A549 cells
Type: functional, cell-based
Recall that a logarithmic scale is used here: each number is log10 of IC50 in µg/mL.

CC(C)[C@]12O[C@H]1[C@@H]1O[C@]13[C@]1(O[C@H]1C[C@H]1C4=C(CC[C@@]13C)C(=O)OC4)[C@H]2O [EPITRIPTOIIDE]    -1.23
CC(C)[C@]12O[C@@H]1[C@@H]1O[C@]13[C@]1(O[C@H]1C[C@H]1C4=C(CC[C@@]13C)C(=O)OC4)[C@@H]2F    -3.38
CC(C)[C@]12O[C@H]1[C@@H]1O[C@]13[C@]1(O[C@H]1C[C@H]1C4=C(CC[C@@]13C)C(=O)OC4)[C@@H]2O [TRIPTOLIDE]    -2.89
CC(C)[C@]1(F)O[C@H]2[C@@H]3O[C@]34[C@]3(O[C@H]3C[C@H]3C5=C(CC[C@@]34C)C(=O)OC5)[C@H]21    0.00
CC(C)C1=C[C@]23O[C@H]2C[C@H]2C4=C(CC[C@]2(C)[C@@]32O[C@H]2[C@@H]1O)C(=O)OC4    -1.09

[in] For CC(C)[C@]12O[C@@H]1[C@@H]1O[C@]13[C@]1(O[C@H]1C[C@H]1C4=C(CC[C@@]13C)C(=O)OC4)[C@H]2F , what is its reported log10 of IC50?
[out] -2.52

[in] May I ask what log10 of IC50 has been recorded for CC(C)[C@]12O[C@H]1[C@@H]1O[C@@]13[C@@]1(C)CCC4=C(COC4=O)[C@@H]1C[C@@H]1O[C@@]13C2=O [TRIPTONIDE] ?
[out] -2.46

[in] Which measured log10 of IC50 value corresponds to CC(C)C1=C[C@]23O[C@H]2C[C@H]2C4=C(CC[C@]2(C)[C@@]32O[C@H]2[C@@H]1F)C(=O)OC4 ?
[out] 0.18

[in] What does the record list as log10 of IC50 for CC(C)C1=C[C@]23O[C@H]2C[C@H]2C4=C(CC[C@]2(C)[C@@]32O[C@H]2[C@H]1F)C(=O)OC4 ?
[out] 0.34

All figures here come from ChEMBL document CHEMBL1144681.
